Values were extracted from patent US11414384B2.

Measured pIC50 accompanies every entry in the list below.
# target.desc: p300 HAT domain (residues 1287-1666) (Homo sapiens (Human), UniProt Q09472)
# Sequence (Q09472 1287-1666): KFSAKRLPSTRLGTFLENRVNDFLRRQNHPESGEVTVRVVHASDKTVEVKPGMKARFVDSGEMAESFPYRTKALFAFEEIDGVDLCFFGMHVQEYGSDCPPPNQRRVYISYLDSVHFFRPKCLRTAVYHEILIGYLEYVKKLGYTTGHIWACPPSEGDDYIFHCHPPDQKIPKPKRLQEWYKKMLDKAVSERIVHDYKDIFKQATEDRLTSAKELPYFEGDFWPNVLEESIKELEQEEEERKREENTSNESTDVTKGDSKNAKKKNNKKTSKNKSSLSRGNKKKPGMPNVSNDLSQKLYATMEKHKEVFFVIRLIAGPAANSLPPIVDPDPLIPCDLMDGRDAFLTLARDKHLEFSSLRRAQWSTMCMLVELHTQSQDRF
# assay.name: p300 HAT SPA assay (scintillation proximity assay, acetylation of biotinylated H3(1-21) peptide)
# Format: biochemical
# condition.summary: p300 HAT domain; average of at least 2 replicate titrations; read-out: P300 HAT SPA IC50
API: returns pIC50 as number; meaning -log10 of concentration in mol/L.

Past entries and their recorded results:
N#Cc1ccc(CCNC(C(=O)c2c[nH]c3cc(-c4cnn(CCO)c4)ccc23)c2ccccc2)cc1 (single isomer, unassigned) [95 Isomer 1] : 6.09
Cn1cnc(-c2ccc3c(C(=O)C(NCCc4ccc(C#N)cc4)c4ccccc4)c[nH]c3c2)c1 (single isomer, unassigned) [113 Isomer 1] : 5.95

Okay, next one:
Lab note: measured pIC50 of O=C(c1c[nH]c2cc(-c3ccncc3)ccc12)C(NCCc1ccc(F)cc1)c1ccccc1 (single isomer, unassigned) [82 Isomer 2] was 6.06

====

# target.desc: p300 HAT domain (residues 1287-1666) (Homo sapiens (Human), UniProt Q09472)
# assay.name: p300 HAT SPA assay (scintillation proximity assay, acetylation of biotinylated H3(1-21) peptide)
# Type: biochemical
# condition.summary: p300 HAT domain; average of at least 2 replicate titrations; read-out: P300 HAT SPA IC50
metric.name: pIC50
API: returns pIC50 as number; meaning -log10 of concentration in mol/L.

O=C(c1c[nH]c2ccccc12)C(NCCc1ccccc1Cl)c1ccccc1 (single isomer, unassigned) [3 Isomer 2] : 5.19
C[C@@H](O)CNC(=O)c1ccc2c(C(=O)C(NCCc3ccc(C#N)cc3)c3ccccc3)c[nH]c2c1 (single isomer, unassigned) [173 Isomer 1] : 5.77

Short answer on p300 HAT domain (residues 1287-1666) (Homo sapiens (Human), UniProt Q09472) for CCN(CC)C(=O)c1ccc2c(C(=O)C(NCCc3ccc(C#N)cc3)c3ccccc3)c[nH]c2c1 (single isomer, unassigned) [165 Isomer 2] , pIC50: 5.63

Short answer on p300 HAT domain (residues 1287-1666) (Homo sapiens (Human), UniProt Q09472) for N#Cc1ccc(CCNC(C(=O)c2c[nH]c3cc(-c4cn[nH]c4)ccc23)c2ccccc2)cc1 (single isomer, unassigned) [98 Isomer 2] , pIC50: 7.23

Short answer on p300 HAT domain (residues 1287-1666) (Homo sapiens (Human), UniProt Q09472) for O=C(c1c[nH]c2ccccc12)C(NCCc1ccncc1)c1ccccc1 (single isomer, unassigned) [11 Isomer 2] , pIC50: 5.15

Short answer on p300 HAT domain (residues 1287-1666) (Homo sapiens (Human), UniProt Q09472) for CCNC(=O)c1ccc2c(C(=O)[C@@H](NCCc3ccc(C#N)cc3)c3ccccc3)c[nH]c2c1 (single isomer, unassigned) [146 Isomer 1] , pIC50: 6.10

Short answer on p300 HAT domain (residues 1287-1666) (Homo sapiens (Human), UniProt Q09472) for N#Cc1ccc(CCNC(C(=O)c2c[nH]c3cc(C(=O)NC4COC4)ccc23)c2ccccc2)cc1 (single isomer, unassigned) [174 Isomer 2] , pIC50: 7.41

Short answer on p300 HAT domain (residues 1287-1666) (Homo sapiens (Human), UniProt Q09472) for O=C(c1c[nH]c2cc(-c3ccccn3)ccc12)C(NCCc1ccc(Cl)cc1)c1ccccc1 (single isomer, unassigned) [108 Isomer 2] , pIC50: 5.58

Short answer on p300 HAT domain (residues 1287-1666) (Homo sapiens (Human), UniProt Q09472) for NC(=O)c1ccc(CCNC(C(=O)c2c[nH]c3ccccc23)c2ccccc2)cc1 (single isomer, unassigned) [133 Isomer 1] , pIC50: 4.64

Short answer on p300 HAT domain (residues 1287-1666) (Homo sapiens (Human), UniProt Q09472) for Cn1cc(-c2ccc3c(C(=O)C(NCCc4ccc(C(=O)O)cc4)c4ccccc4)c[nH]c3c2)cn1 (single isomer, unassigned) [138 Isomer 1] , pIC50: 6.35

Short answer on p300 HAT domain (residues 1287-1666) (Homo sapiens (Human), UniProt Q09472) for COc1ccc(CCNC(C(=O)c2c[nH]c3c(CCC(=O)N(C)C)cccc23)c2ccccc2)cc1 (single isomer, unassigned) [29 Isomer 1] , pIC50: 5.66

Short answer on p300 HAT domain (residues 1287-1666) (Homo sapiens (Human), UniProt Q09472) for Cc1ncc(-c2ccc3c(C(=O)C(NCCc4ccc(Cl)cc4)c4ccccc4)c[nH]c3c2)[nH]1 (single isomer, unassigned) [110 Isomer 2] , pIC50: 6.59

Short answer on p300 HAT domain (residues 1287-1666) (Homo sapiens (Human), UniProt Q09472) for CNC(=O)Cc1ccc2c(C(=O)C(NCCc3ccc(C#N)cc3)c3ccccc3)c[nH]c2c1 (single isomer, unassigned) [62 Isomer 1] , pIC50: 6.30

Short answer on p300 HAT domain (residues 1287-1666) (Homo sapiens (Human), UniProt Q09472) for CCC(CNC(C(=O)c1c[nH]c2ccccc12)c1ccccc1)c1ccc(Cl)cc1 (single isomer, unassigned) [59 Isomer 4] , pIC50: 6.08

Short answer on p300 HAT domain (residues 1287-1666) (Homo sapiens (Human), UniProt Q09472) for O=C(c1c[nH]c2ccccc12)C(NCCc1cccnc1)c1ccccc1 (single isomer, unassigned) [10 Isomer 1] , pIC50: 4.67
